Target: Dipeptidyl peptidase 2 (Homo sapiens)
Test: Inhibitory concentration against quiescent cell proline peptidase

| molecule | target.system | IC50 |
| --- | --- | --- |
| N[C@@H](CC(=O)N1CCNC[C@H]1Cc1cscn1)Cc1ccccc1F | Dipeptidyl peptidase 2 (Homo sapiens) | > 100 µM |
| CS(=O)(=O)Nc1cccc(NC(=O)CN2CCN(C(=O)C[C@@H](N)Cc3ccc(F)c(F)c3)C(Cc3ccccc3)C2)c1 (stereo partly drawn) | Dipeptidyl peptidase 2 (Homo sapiens) | 15 µM |
| CS(=O)(=O)Nc1cccc(NC(=O)CN2CCN(C(=O)C[C@H](N)Cc3ccccc3)C(Cc3ccccc3)C2)c1 (stereo partly drawn) | Dipeptidyl peptidase 2 (Homo sapiens) | 7.7 µM |
| N[C@@H](CC(=O)N1CCOC[C@H]1Cc1ccccc1)Cc1ccccc1F | Dipeptidyl peptidase 2 (Homo sapiens) | > 100 µM |
| CN1CCN(C(=O)C[C@H](N)Cc2ccccc2F)[C@H](Cc2ccccc2)C1 | Dipeptidyl peptidase 2 (Homo sapiens) | > 100 µM |
| NC(=O)CN1CCN(C(=O)C[C@H](N)Cc2ccccc2F)[C@H](Cc2ccccc2)C1 | Dipeptidyl peptidase 2 (Homo sapiens) | 66 µM |
| CS(=O)(=O)Nc1cccc(NC(=O)CN2CCN(C(=O)C[C@H](N)Cc3ccc(F)c(F)c3)[C@@H](Cc3ccccc3)C2)c1 | Dipeptidyl peptidase 2 (Homo sapiens) | 0.28 µM |
| N[C@@H](CC(=O)N1CCCC[C@H]1Cc1ccccc1)Cc1ccccc1F | Dipeptidyl peptidase 2 (Homo sapiens) | > 100 µM |

----------
Experiment: Bioavailability in rat
Type: ADME, organism-based
Conditions: in vivo
recorded.metric: bioavailability

| structure.notation | recorded.metric | experimental.value |
| --- | --- | --- |
| CS(=O)(=O)Nc1cccc(NC(=O)CN2CCN(C(=O)C[C@H](N)Cc3ccccc3F)[C@H](Cc3ccccc3)C2)c1 | bioavailability | < 1% |

----------
Reported values: IC50 for Dipeptidyl peptidase 4 (Homo sapiens, UniProt P27487), one per item.

| molecule | IC50 (nM) |
| --- | --- |
| C[C@@H]1CNCCN1C(=O)C[C@H](N)Cc1ccccc1F | 1600 |
| N[C@@H](CC(=O)N1CCN(Cc2ccccc2)C[C@H]1Cc1ccccc1)Cc1ccccc1F | 405 |
| N[C@@H](CC(=O)N1CCNC[C@H]1Cc1cccnc1)Cc1ccccc1F | 155 |
| N[C@@H](CC(=O)N1CCOC[C@H]1Cc1ccccc1)Cc1ccccc1F | 108 |
| CS(=O)(=O)Nc1cccc(NC(=O)CN2CCN(C(=O)C[C@H](N)Cc3ccc(F)c(F)c3)[C@@H](Cc3ccccc3)C2)c1 | 1100 |
| N[C@@H](CC(=O)N1CCNC[C@H]1Cc1cscn1)Cc1ccccc1F | 143 |
| N[C@@H](CC(=O)N1CCNCC1)Cc1ccccc1F | 3700 |
| N[C@@H](CC(=O)N1CCCC[C@H]1Cc1ccccc1)Cc1ccccc1F | 1040 |
| CC(C)[C@@H]1CNCCN1C(=O)C[C@H](N)Cc1ccccc1F | 922 |
| CS(=O)(=O)Nc1cccc(NC(=O)CN2CCN(C(=O)C[C@@H](N)Cc3ccc(F)c(F)c3)C(Cc3ccccc3)C2)c1 (stereo partly specified) | 36000 |
| CN1CCN(C(=O)C[C@H](N)Cc2ccccc2F)[C@H](Cc2ccccc2)C1 | 225 |
